Item-by-item account of yeast fitness
B1: tRNA (parent)
chain: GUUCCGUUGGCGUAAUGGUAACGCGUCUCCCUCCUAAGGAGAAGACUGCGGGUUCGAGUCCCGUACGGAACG

- Variants of: B1
- ASSAY OVERVIEW: yeast fitness relative to wild type (ratio to wild type); higher = fitter; tRNA-Arg(CCU), competitive growth, 37 C, YPD
This sample holds only a part of the variants without activity.

Before answering, review these 6 worked examples.
Query: yeast fitness; subject: A14G C31A C46U G56C A69U
≤ 0.5

How about this variant: G39A G51C U59C
≤ 0.5

How about this variant: C4A A21U A43G C62A
≤ 0.5

How about this variant: A14G U35G G52C
≤ 0.5

How about this variant: G12A U53A
0.62

How about this variant: U13C A42U U54C
0.592

Next:
Query: yeast fitness; subject: A20C G25A C31G C33U C34U G41C A57G
≤ 0.5

How about this variant: C31G C34U A40C C66A
≤ 0.5

How about this variant: U2C A14C A15G U16A
≤ 0.5

How about this variant: C33U G39C A57U
0.643

How about this variant: A20C C29U G50C
≤ 0.5

How about this variant: A14C U19A C49U C62G G63A
≤ 0.5

How about this variant: C30A U32A U35G G67A
≤ 0.5

How about this variant: G23A C29U C31U A42G C61A
≤ 0.5

How about this variant: C22U A42U
0.749

How about this variant: C4A C29U C31U U54G A65U G67A
≤ 0.5

How about this variant: A14U G38C C62A G67C
≤ 0.5
